Molecular target: T1, recombinant rat MASP1 active protease (amino acids 302-704, C-terminal His Tag) (rat, UniProt Q8CHN8 302-704)
T1 sequence: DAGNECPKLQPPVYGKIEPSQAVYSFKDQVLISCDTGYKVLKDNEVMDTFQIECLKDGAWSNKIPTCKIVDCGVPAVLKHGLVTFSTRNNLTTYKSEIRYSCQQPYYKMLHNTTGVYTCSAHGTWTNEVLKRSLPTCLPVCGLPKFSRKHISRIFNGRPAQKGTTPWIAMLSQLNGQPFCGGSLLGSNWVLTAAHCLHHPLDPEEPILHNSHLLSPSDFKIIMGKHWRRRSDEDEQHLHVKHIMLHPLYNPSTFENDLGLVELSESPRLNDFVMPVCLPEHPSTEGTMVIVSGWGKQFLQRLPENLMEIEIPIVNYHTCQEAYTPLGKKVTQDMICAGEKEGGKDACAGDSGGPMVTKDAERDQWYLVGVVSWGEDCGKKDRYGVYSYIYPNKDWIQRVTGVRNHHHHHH
Experiment: cell-based or functional assay
Numbered stars: 1 amine (or outer) side, 2 acyl side, 3 side chain; on linkers, the order of the positions; unused ones are H or OH. Bridge positions count the residues as written; N and C are the ends. Square brackets hold non-standard residues; d marks the D form. Ends that are not written are not given here. Ida = iminodiacetic acid, O=C(CN(CC(=O)[*:3])[*:1])[*:2]; Oic = O=C(O)[C@@H]1C[C@@H]2CCCC[C@@H]2N1; tBuAla = CC(C)(C)C[C@H](N)C(=O)O; Chg = N[C@H](C(=O)O)C1CCCCC1; Pen = CC(C)(S)[C@H](N)C(=O)O; αMeP = C[C@@]1(C(=O)O)CCCN1; 4Amb = NCc1ccc(C(=O)O)cc1; PEG3 = NCCOCCOCCOCCC(=O)O; NMeA = CN[C@@H](C)C(=O)O; Ahx = NCCCCCC(=O)O; Sar = CNCC(=O)O
Binary classification by rat MASP1 IC50, with 100 nM as an inclusive lower bound for 1; all other cases are 0.

[
  {
    "Binder": "[4Amb]ICSRS[tBuAla]PPI[Pen]IPD-NH2 (disulfide 3-11; N-terminus assumed; SMILES CC[C@H](C)[C@H](NC(=O)c1ccc(CN)cc1)C(=O)N[C@H]1CSSC(C)(C)[C@@H](C(=O)N[C@H](C(=O)N2CCC[C@H]2C(=O)N[C@@H](CC(=O)O)C(N)=O)[C@@H](C)CC)NC(=O)[C@H]([C@@H](C)CC)NC(=O)[C@@H]2CCCN2C(=O)[C@@H]2CCCN2C(=O)[C@H](CC(C)(C)C)NC(=O)[C@H](CO)NC(=O)[C@H](CCCNC(=N)N)NC(=O)[C@H](CO)NC1=O) [Example 187: (4-(Aminomethyl)benzoic acid)-IC+SRS-((tBu)A)-PPI-(Pen)+IPD-NH2]",
    "Class": 0
  },
  {
    "Binder": "[Sar]ICSRSLP[Oic]I[Pen]IPD[PEG3]-OH (disulfide 3-11; N-terminus assumed; SMILES CC[C@H](C)[C@H](NC(=O)CNC)C(=O)N[C@H]1CSSC(C)(C)[C@@H](C(=O)N[C@H](C(=O)N2CCC[C@H]2C(=O)N[C@@H](CC(=O)O)C(=O)NCCOCCOCCOCCC(=O)O)[C@@H](C)CC)NC(=O)[C@H]([C@@H](C)CC)NC(=O)[C@@H]2C[C@@H]3CCCC[C@@H]3N2C(=O)[C@@H]2CCCN2C(=O)[C@H](CC(C)C)NC(=O)[C@H](CO)NC(=O)[C@H](CCCNC(=N)N)NC(=O)[C@H](CO)NC1=O) [Example 484: ((N-Me)G)-IC+SRSLP-(Oic)-I-(Pen)+IPD-(PEG2(13 atoms))-OH]",
    "Class": 0
  },
  {
    "Binder": "[Sar]ICSRSLPPICI[Oic]D-OH (disulfide 3-11; N-terminus assumed; SMILES CC[C@H](C)[C@H](NC(=O)CNC)C(=O)N[C@H]1CSSC[C@@H](C(=O)N[C@H](C(=O)N2[C@H](C(=O)N[C@@H](CC(=O)O)C(=O)O)C[C@@H]3CCCC[C@@H]32)[C@@H](C)CC)NC(=O)[C@H]([C@@H](C)CC)NC(=O)[C@@H]2CCCN2C(=O)[C@@H]2CCCN2C(=O)[C@H](CC(C)C)NC(=O)[C@H](CO)NC(=O)[C@H](CCCNC(=N)N)NC(=O)[C@H](CO)NC1=O) [Example 367: ((N-Me)G)-IC+SRSLPPIC+I-(Oic)-D-OH]",
    "Class": 1
  },
  {
    "Binder": "[Sar]ICSRSLPPICI[αMeP]D-OH (disulfide 3-11; N-terminus assumed; SMILES CC[C@H](C)[C@H](NC(=O)CNC)C(=O)N[C@H]1CSSC[C@@H](C(=O)N[C@H](C(=O)N2CCC[C@@]2(C)C(=O)N[C@@H](CC(=O)O)C(=O)O)[C@@H](C)CC)NC(=O)[C@H]([C@@H](C)CC)NC(=O)[C@@H]2CCCN2C(=O)[C@@H]2CCCN2C(=O)[C@H](CC(C)C)NC(=O)[C@H](CO)NC(=O)[C@H](CCCNC(=N)N)NC(=O)[C@H](CO)NC1=O) [Example 289: ((N-Me)G)-IC+SRSLPP-IC+I-((2-Me)P)-D-OH]",
    "Class": 1
  },
  {
    "Binder": "[(N,N-diMe)A]ICSRS[tBuAla]PPICIPD-NH2 (disulfide 3-11) [Example 243: ((N,N-diMe)A)-IC+SRS-((tBu)A)-PPIC+IPD-NH2]",
    "Class": 1
  },
  {
    "Binder": "[dP]ICSRSLP[Oic]I[Pen]IP[Ida]-OH (disulfide 3-11; also: HCl salt) [Example 528: pIC+SRSLP-(Oic)-I-(Pen)+IP-(Ida)-OH (HCl salt)]",
    "Class": 1
  }
]

Reported rat MASP1 IC50 reaches at least 100 nM for [Sar]ICSRSLP[Oic]I[Pen]IPD[Ahx]-OH (disulfide 3-11; N-terminus assumed; SMILES CC[C@H](C)[C@H](NC(=O)CNC)C(=O)N[C@H]1CSSC(C)(C)[C@@H](C(=O)N[C@H](C(=O)N2CCC[C@H]2C(=O)N[C@@H](CC(=O)O)C(=O)NCCCCCC(=O)O)[C@@H](C)CC)NC(=O)[C@H]([C@@H](C)CC)NC(=O)[C@@H]2C[C@@H]3CCCC[C@@H]3N2C(=O)[C@@H]2CCCN2C(=O)[C@H](CC(C)C)NC(=O)[C@H](CO)NC(=O)[C@H](CCCNC(=N)N)NC(=O)[C@H](CO)NC1=O) [Example 465: ((N-Me)G)-IC+SRSLP-(Oic)-I-(Pen)+IPD-(Ahx)-OH] ?
0

Reported rat MASP1 IC50 reaches at least 100 nM for [NMeA]ICSRS[tBuAla]PPI[Pen]IP-NH2 (disulfide 3-11; N-terminus assumed; SMILES CC[C@H](C)[C@H](NC(=O)[C@H](C)NC)C(=O)N[C@H]1CSSC(C)(C)[C@@H](C(=O)N[C@H](C(=O)N2CCC[C@H]2C(N)=O)[C@@H](C)CC)NC(=O)[C@H]([C@@H](C)CC)NC(=O)[C@@H]2CCCN2C(=O)[C@@H]2CCCN2C(=O)[C@H](CC(C)(C)C)NC(=O)[C@H](CO)NC(=O)[C@H](CCCNC(=N)N)NC(=O)[C@H](CO)NC1=O) [Example 126: ((N-Me)A)-IC+SRS-((tBu)A)-PPI-(Pen)+IP-NH2] ?
0

Reported rat MASP1 IC50 reaches at least 100 nM for AICSRSLPP[Chg]CIPD-OH (disulfide 3-11; N-terminus assumed; SMILES CC[C@H](C)[C@H](NC(=O)[C@H](C)N)C(=O)N[C@H]1CSSC[C@@H](C(=O)N[C@H](C(=O)N2CCC[C@H]2C(=O)N[C@@H](CC(=O)O)C(=O)O)[C@@H](C)CC)NC(=O)[C@H](C2CCCCC2)NC(=O)[C@@H]2CCCN2C(=O)[C@@H]2CCCN2C(=O)[C@H](CC(C)C)NC(=O)[C@H](CO)NC(=O)[C@H](CCCNC(=N)N)NC(=O)[C@H](CO)NC1=O) [Example 222: AIC+SRSLPP-(Chg)-C+IPD-OH] ?
1
